Values from patent US9920061B2

Assay: Compound solubility in water
Type: physicochemical
Listed next: entries and their corresponding log10 of solubility.
Observed property: log10 of solubility (log10 of the value in µg/mL)

Molecule	log10 of solubility
CNc1cc(C)nc2c(C(=O)NC(c3ccc(F)cc3)C(F)(F)F)ncn12 (centres unmarked)	0.23
Cc1cc(-c2cccnc2)nc2c(C(=O)NC(C)(C)C3CC3)ncn12	1.43
COc1cccc(-c2cc(C)n3cnc(C(=O)NC(C4CC4)C(F)(F)F)c3n2)n1 (centres unmarked)	-0.30
Cc1cc(-c2ccc(F)cc2)nc2c(C(=O)N[C@@H](C)C3CC3)ncn12	0.97
COc1cccc(-c2cc(C)n3cnc(C(=O)NC(C)C(F)(F)F)c3n2)c1 (centres unmarked)	0.46

====

Target: glucocerebrosidase (Gcase) (Homo sapiens, UniProt P04062)
Sequence (P04062 40-536): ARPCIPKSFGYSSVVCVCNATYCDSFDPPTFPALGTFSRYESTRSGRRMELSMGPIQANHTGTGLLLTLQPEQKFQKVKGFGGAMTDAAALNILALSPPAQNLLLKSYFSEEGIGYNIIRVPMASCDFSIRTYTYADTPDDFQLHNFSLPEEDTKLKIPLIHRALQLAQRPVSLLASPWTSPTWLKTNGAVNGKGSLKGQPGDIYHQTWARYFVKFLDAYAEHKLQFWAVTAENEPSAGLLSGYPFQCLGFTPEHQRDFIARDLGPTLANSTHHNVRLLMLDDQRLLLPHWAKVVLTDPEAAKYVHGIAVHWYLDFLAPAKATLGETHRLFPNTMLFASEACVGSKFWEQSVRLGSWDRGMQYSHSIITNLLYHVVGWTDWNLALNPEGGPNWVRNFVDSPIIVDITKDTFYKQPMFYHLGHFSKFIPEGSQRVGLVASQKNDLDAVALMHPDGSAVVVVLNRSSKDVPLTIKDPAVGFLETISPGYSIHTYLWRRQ
Assay: Glucocerebrosidase (Gcase) activation assay, 4-methylumbelliferyl-beta-D-glucopyranoside substrate, with saposin C
Format: biochemical
Settings: 0.1 μM test compound; read-out: Percent Gcase Activation 0.1 μM Test Compound
Procedure: The ability of exemplary compounds to activate glucocerebrosidase (Gcase) was measured. A 484 μL aliquot of a 1.0 mg/mL solution of phosphatidylserine (PS) (Sigma P7769) in chloroform was evaporated under a stream of nitrogen for 1 hour. The lipid film was dissolved over 4 minutes of vigorous vortexing in 40 mL of 176 mM K2HPO4/50 mM citric acid (pH 4.7) containing 7.5 μL of triton X-100, resulting in a mixed micellar preparation with a composition of 0.32 mM triton and 0.37 mol % PS. […]

Compound	activation at 0.1 µM
Cc1cc(-c2cnsc2)nc2c(C(=O)NC(C)(C)C3CC3)ncn12	10 to 20%
C[C@H](NC(=O)c1ncn2cc(-c3ccc(F)cc3)cnc12)C1CC1	< 10%
Cc1cc(C)n2cnc(C(=O)NC(CC(C)C)C3CC3)c2n1 (stereo not drawn)	10 to 20%
C#Cc1cccc([C@H](NC(=O)c2ncn3c(C)cc(C)nc23)C(F)(F)F)c1	> 20%
Cc1cc(-c2cnccn2)nc2c(C(=O)NC(C)(C)C3CC3)ncn12	< 10%
COc1ccccc1[C@H](C)NC(=O)c1ncn2c(C)cc(-c3ccc(F)cc3)nc12	10 to 20%
C#Cc1cccc(C2(NC(=O)c3ncn4c(C)cc(C)nc34)CC2)c1	< 10%
CCc1cc(N2CCCC(F)(F)C2)nc2c(C(=O)NC(C3CC3)C(F)(F)F)ncn12 (stereo not drawn)	10 to 20%
Cc1cc(-c2cccnc2)nc2c(C(=O)NC(C)C3CC3)ncn12 (stereo not drawn)	< 10%
Cc1cc(-c2cccnc2)nc2c(C(=O)NC(C)C(C)C3CC3)ncn12 (stereo not drawn)	< 10%
Cc1cc(NC2CC2)nc2c(C(=O)NC(c3ccc(F)cc3)C(F)(F)F)ncn12 (stereo not drawn)	> 20%
CO[C@H]1CC[C@H](C(C)(C)NC(=O)c2ncn3c(C)cc(-c4cccnc4)nc23)CC1	< 10%
Cc1cc(-c2cccc(Cl)c2)nc2c(C(=O)NC(C)(C)C)ncn12	> 20%
COc1cc(-c2cc(C)n3cnc(C(=O)NC(C4CC4)C(F)(F)F)c3n2)ccc1F (stereo not drawn)	> 20%
Cc1cc(-c2ccc(Cl)nc2)nc2c(C(=O)N[C@@H](C)C3CC3)ncn12	< 10%
Cc1cc(-c2ncc[nH]2)nc2c(C(=O)NC(C)(C)C3CC3)ncn12	< 10%
Cc1cc(-c2ccc(F)cc2)nc2c(C(=O)NC(C)(C)C)ncn12	< 10%
Cc1cc(OC(C)C)nc2c(C(=O)NC(C3CC3)C(F)(F)F)ncn12 (stereo not drawn)	10 to 20%
CCC(NC(=O)c1ncn2c(C)cc(-c3ccccn3)nc12)c1ccc(F)cc1 (stereo not drawn)	10 to 20%
Cc1cc(-n2cccn2)nc2c(C(=O)NC(C)(C)C3CC3)ncn12	< 10%
Cc1cc(-c2ccccn2)nc2c(C(=O)NC(CC(C)C)C3CC3)ncn12 (stereo not drawn)	> 20%
COCc1cc(-c2ccc(F)cc2)nc2c(C(=O)N[C@@H](C)C3CC3)ncn12	10 to 20%
COc1cc(-c2ccc(F)cc2)nc2c(C(=O)N[C@@H](C)C3CC3)ncn12	< 10%
Cc1cc(-c2cc(F)ccc2F)nc2c(C(=O)N[C@@H](C)C3CC3)ncn12	> 20%
Cc1cc(-c2cccc(Cl)c2)nc2c(C(=O)NC(C)(C)C3CC3)ncn12	> 20%
CCc1cc(-c2cccc(OC)n2)nc2c(C(=O)NC(C3CC3)C(F)(F)F)ncn12 (stereo not drawn)	> 20%
Cc1cc(N2CCC(C)(C)C2=O)nc2c(C(=O)NC(C3CC3)C(F)(F)F)ncn12 (stereo not drawn)	< 10%
CNc1cc(C)nc2c(C(=O)NC(c3ccc(F)cc3)C(F)(F)F)ncn12 (stereo not drawn)	> 20%
Cc1cc(-c2ccc(C#N)c(O)c2)nc2c(C(=O)NC(C3CC3)C(F)(F)F)ncn12 (stereo not drawn)	< 10%
Cc1cc(-c2cccc3ncoc23)nc2c(C(=O)NC(C3CC3)C(F)(F)F)ncn12 (stereo not drawn)	> 20%
C#CC(C)(C)NC(=O)c1ncn2c(C)cc(-c3cccc(F)c3)nc12	> 20%
Cc1cc(-c2cccnc2)nc2c(C(=O)NC(c3ccc(F)cc3)C(F)(F)F)ncn12 (stereo not drawn)	> 20%
Cc1cc(-c2ccc(F)cc2)nc2c(C(=O)NC(C3CC3)C3CC3)ncn12	> 20%
COc1cccc(-c2cc(C)n3cnc(C(=O)NC(C)(C)C4CC4)c3n2)n1	> 20%
Cc1cc(-c2cccc(F)c2)nc2c(C(=O)NC(C)(C)C3CC3)ncn12	> 20%
Cc1cc(C)n2cnc(C(=O)NC(C)(C)CC3CC3)c2n1	< 10%
